B1: PhoQ; a variant is named by its letters at X, in order, P23837 (parent)
chain: MKKLLRLFFPLSLRVRFLLATAAVVLVLSLAYGMVALIGYSVSFDKTTFRLLRGESNLFYTLAKWENNKLHVELPENIDKQSPTMTLIYDENGQLLWAQRDVPWLMKMIQPDWLKSNGFHEIEADVNDTSLLLSGDHSIQQQLQEVREDDDDAEMTHSVAVNVYPATSRMPKLTIVVVDTIPVELKSSYMVWSWFIYVLSANLLLVIPLLWVAAWWSLRPIEALAKEVRELEEHNRELLNPATTRELTSLVRNLNRLLKSERERYDKYRTTLTDLTHSLKTPLXXLQXXLRSLRSEKMSVSDAEPVMLEQISRISQQIGYYLHRASMRGGTLLSRELHPVAPLLDNLTSALNKVYQRKGVNISLDISPEISFVGEQNDFVEVMGNVLDNACKYCLEFVEISARQTDEHLYIVVEDDGPGIPLSKREVIFDRGQRVDTLRPGQGVGLAVAREITEQYEGKIVAGESMLGGARMEVIFGRQHSAPKDE

variants of: B1; test: enrichment ratio after two sorts for PhoP signalling (ratio (wild type AVST 3.29)); higher = more functional; details: with PhoP (E. coli)
In all, about 140,000 sequences were measured (“enrichment ratio after two sorts for PhoP signalling”: median about 0, highest 2% from about 11 on). Shown is part of a subset that was picked to be rich in the highest values.
attribute_measured: enrichment ratio

Prompt line: For `ACTC` , what is its reported enrichment ratio?
Response line: 4.29

Prompt line: And then `ATLM` , what is it?
Response line: 21.4

Prompt line: // next record `NVSM`
Response line: ≤ 0.25

Prompt line: Cool, now `SSCL`
Response line: 18.7

Prompt line: Can you handle `MMSM` next?
Response line: 7.2

Prompt line: Param item: `FEKW`
Response line: ≤ 0.25

Prompt line: For `TSSM` then?
Response line: 24.4

Prompt line: Same read-out for `WQPW` ?
Response line: ≤ 0.25

Prompt line: Now give it for `SDTV` too.
Response line: 13.5

Prompt line: Further, for `EHCF` ?
Response line: ≤ 0.25

Prompt line: Continue with `KSSM`
Response line: ≤ 0.25

Prompt line: Same again, this time with `RHPV`
Response line: ≤ 0.25

Prompt line: Follow-up item: `YTSM`
Response line: 1.02

Prompt line: Next variant up: `EILP`
Response line: ≤ 0.25

Prompt line: Queued: `ACWM`
Response line: ≤ 0.25
